System: EBV lymphoblastoid cells (LCL) viability, plate reader
Test: cytotoxicity in EBV lymphoblastoid cells, dose response, cytotoxicity control, cell-based, plate reader, cherry-picks, set 2 (AID 504882)
Inconclusive results are not listed. The source made the active and inactive calls. The rule behind the calls is not given here.
Labels: yes (1) for active, no (0) for inactive

{"columns": ["structure", "class.assignment"],
 "data": [
  ["CCn1c2ccccc2c2cc(/C=N/NC(=O)c3ccccc3)ccc21", "yes (1)"],
  ["Cc1ccc2[nH]c3c(N4CCN(Cc5ccccc5)CC4)ncnc3c2c1", "yes (1)"],
  ["CCn1c2ccccc2c2cc(/C=N/n3c(-c4cc(C)[nH]n4)n[nH]c3=S)ccc21", "yes (1)"],
  ["O=C(c1cccc(F)c1)N1CCN(c2cccc(Cl)c2)CC1", "yes (1)"],
  ["CCN(CC)C(=O)c1ccc(NC(=O)Nc2ccccc2F)cc1", "yes (1)"],
  ["Cc1cc(Sc2nnc(N)s2)c2ccccc2n1", "yes (1)"],
  ["Cc1c(C(=O)Nc2nc(-c3ccccn3)cs2)oc2ccccc12", "yes (1)"],
  ["O=C(Nc1nc(-c2ccccn2)cs1)c1ccc(Cl)s1", "yes (1)"],
  ["Cc1cc(N/N=C\\c2ccc(Br)cc2)nc(-n2nc(C)cc2C)n1", "yes (1)"],
  ["COc1ccccc1/C=C/C(=O)c1ccc(Cl)cc1", "no (0)"],
  ["O=C(N/N=C/c1ccc[nH]1)c1ccc(COc2cccc3cccnc23)cc1", "yes (1)"]
]}
